Test system: DIGSA
Test Protocol: Pre-emergence action against DIGSA, 1280 g/ha
Type: in vivo, Digitaria sanguinalis
Measurement Context: visual scoring after about 3 weeks vs untreated controls, 100% = plants have died, 0% = like control plants
Catalogue of Pre-emergence action against DIGSA values

Molecule | Pre-emergence action against DIGSA [%]
C=CCNC(=O)COc1nn(-c2ccccc2F)c(-c2ccc(F)nc2)c1Br | 100
COC(=O)C(C)Oc1nn(-c2ccccc2)c(-c2ccc(F)nc2)c1Cl (stereo not drawn) | 90
CCC(Oc1nn(-c2ccccc2F)c(-c2ccc(F)nc2)c1Br)C(=O)OC (stereo not drawn) | 100
CCOC(=O)COc1nn(-c2ccc(F)cc2F)c(-c2ccc(F)nc2)c1F | 90
COC(=O)COc1nn(-c2cc(F)ccc2F)c(-c2ccnc(F)c2)c1Br | 100
COC(=O)[C@H](C)Oc1nn(-c2ccccc2F)c(-c2cncnc2)c1Br | 100
CN(C)S(=O)(=O)NC(=O)COc1nn(-c2ccccc2F)c(-c2ccc(F)nc2)c1Br | 100
CCOC(=O)COc1nn(-c2ccccc2F)c(-c2cncnc2)c1[N+](=O)[O-] | 100
CC(Oc1nn(-c2ccccc2F)c(-c2ccc(F)nc2)c1I)C(=O)O (stereo not drawn) | 100

---

System: KCHSC
Test Protocol: Post-emergence action against KCHSC, 1.28 kg/ha
Assay type: in vivo, Bassia scoparia
Measurement Context: dosage 1280 g/ha, visual rating about 3 weeks after treatment vs untreated controls (100% = plants died)
Catalogue of Post-emergence action against KCHSC values
Experimental Readout: Post-emergence action against KCHSC (%)

Molecule | Measured Target | Experimental Readout | Result Number
COC(=O)COc1nn(-c2c(F)cccc2F)c(-c2ccc(F)nc2)c1C#N [VII-061] | KCHSC | Post-emergence action against KCHSC | 90
COC(=O)[C@@H](C)Oc1nn(-c2cc(F)ccc2F)c(-c2cncc(F)c2)c1Br [VII-132] | KCHSC | Post-emergence action against KCHSC | 100
COC(=O)[C@@H](C)Oc1nn(-c2ccccc2F)c(-c2ccc(F)nc2)c1Br [VII-123-a] | KCHSC | Post-emergence action against KCHSC | 90
C=CCNC(=O)COc1nn(-c2ccccc2F)c(-c2cncnc2)c1Br [IX-001] | KCHSC | Post-emergence action against KCHSC | 90
COC(=O)COc1nn(-c2ccccc2F)c(-c2ccc(F)nc2)c1F [VII-040] | KCHSC | Post-emergence action against KCHSC | 90
COC(=O)[C@@H](C)Oc1nn(-c2ccccc2F)c(-c2cncnc2)c1[N+](=O)[O-] [VI-006] | KCHSC | Post-emergence action against KCHSC | 90
COC(=O)COc1nn(-c2ccccc2)c(-c2ccc(F)nc2)c1Br [VII-018] | KCHSC | Post-emergence action against KCHSC | 90
COC(=O)[C@@H](C)Oc1nn(-c2cc(F)ccc2F)c(-c2ccc(F)nc2)c1C#N [VII-099] | KCHSC | Post-emergence action against KCHSC | 100
O=C(O)COc1nn(-c2ccccc2F)c(-c2ccc(F)nc2)c1Br [VI-003] | KCHSC | Post-emergence action against KCHSC | 90

---

Tested on: STEME
Test Protocol: Pre-emergence action at 320 g/ha against STEME
Type: in vivo, Stellaria media
Measurement Context: greenhouse, scored visually after about 3 weeks vs untreated controls, 100% = plants have died, 0% = like control plants
Catalogue of Pre-emergence action at 320 g/ha against STEME in % values
Experimental Readout: Pre-emergence action at 320 g/ha against STEME in % (%)

Compound | Measured Target | Result Unit | Result Number
COC(=O)C(C)Oc1nn(-c2ccccc2)c(-c2ccnc(Cl)c2)c1Cl (stereo not drawn) | STEME | % | 90
CC(C)OC(=O)COc1nn(-c2ccccc2F)c(-c2ccc(F)nc2)c1Br | STEME | % | 90
CCOC(=O)COc1nn(-c2ccccc2F)c(-c2ccc(F)nc2)c1Br | STEME | % | 100
CCC(Oc1nn(-c2ccccc2F)c(-c2ccc(F)nc2)c1Br)C(=O)OC (stereo not drawn) | STEME | % | 90
COC(=O)C(C)Oc1nn(-c2ccccc2)c(-c2cccnc2)c1Cl (stereo not drawn) | STEME | % | 90
CCOC(=O)C(C)Oc1nn(-c2ccccc2F)c(-c2ccc(F)nc2)c1Br (stereo not drawn) | STEME | % | 90
COC(=O)COc1nn(-c2ccc(F)cc2)c(-c2ccc(F)nc2)c1Br | STEME | % | 90
COC(=O)COc1nn(-c2ccc(F)cc2)c(-c2cccnc2)c1Br | STEME | % | 90
COC(=O)COc1nn(-c2ccccc2F)c(-c2cncnc2)c1Br | STEME | % | 90
CCOC(=O)COc1nn(-c2ccc(F)cc2F)c(-c2ccc(F)nc2)c1Cl | STEME | % | 90
CCOC(=O)COc1nn(-c2ccccc2F)c(-c2ccnc(F)c2)c1Br | STEME | % | 80
O=C(O)COc1nn(-c2ccccc2F)c(-c2cncnc2)c1Br | STEME | % | 100
O=C(O)COc1nn(-c2ccccc2F)c(-c2ccc(F)nc2)c1Br | STEME | % | 90
COC(=O)C(C)Oc1nn(-c2ccccc2)c(-c2ccc(F)nc2)c1Cl (stereo not drawn) | STEME | % | 90
O=C(O)COc1nn(-c2ccccc2F)c(-c2ccnc(F)c2)c1Br | STEME | % | 90

---

Catalogue of Post-emergence action at 320 g/ha against ECHCG in % values
Test system: ECHCG
Test Protocol: Post-emergence action at 320 g/ha against ECHCG
Assay type: in vivo, Echinochloa crus-galli
Measurement Context: dosage 320 g/ha, visual rating about 3 weeks after treatment vs untreated controls (100% = plants died)
Experimental Readout: Post-emergence action at 320 g/ha against ECHCG in %

Compound | Result
COC(=O)[C@@H](C)Oc1nn(-c2ccccc2F)c(-c2ccnc(F)c2)c1Br [VIII-006] | 90%
COC(=O)[C@@H](C)Oc1nn(-c2ccccc2)c(-c2cccnc2)c1Br [VII-008] | 90%
O=C(O)COc1nn(-c2ccccc2F)c(-c2ccc(F)nc2)c1I [VII-037] | 80%
CCOC(=O)COc1nn(-c2ccccc2C)c(-c2ccc(F)nc2)c1Br [VII-056-a] | 80%
CC(C)OC(=O)COc1nn(-c2ccccc2F)c(-c2ccc(F)nc2)c1Br [VII-005] | 90%
COC(=O)COc1nn(-c2ccccc2F)c(-c2cncc(F)c2)c1Br [VII-035] | 90%
COC(=O)[C@@H](C)Oc1nn(-c2ccccc2F)c(-c2ccc(F)nc2)c1Br [VII-004] | 90%
O=C(O)COc1nn(-c2ccccc2F)c(-c2ccc(F)nc2)c1Br [VII-003] | 90%
COC(=O)[C@H](C)Oc1nn(-c2cc(F)ccc2F)c(-c2ccc(F)nc2)c1Br [VII-107] | 80%
O=C(O)COc1nn(-c2ccccc2F)c(-c2cncnc2)c1Br [VI-007] | 80%
COC(=O)COc1nn(-c2ccccc2F)c(-c2ccc(F)nc2)c1F [VII-040] | 80%
CCOC(=O)COc1nn(-c2ccccc2F)c(-c2ccc(F)nc2)c1C(F)(F)F [VII-010] | 90%
CCOC(=O)COc1nn(-c2ccccc2F)c(-c2ccc(F)nc2)c1I [VII-036] | 80%
CS(=O)(=O)NC(=O)COc1nn(-c2ccccc2F)c(-c2ccc(F)nc2)c1Br [Example X-004] | 90%
CCOC(=O)COc1nn(-c2ccc(F)cc2F)c(-c2ccc(F)nc2)c1Cl [VII-016] | 80%
CCC(Oc1nn(-c2ccccc2F)c(-c2ccc(F)nc2)c1Br)C(=O)OC (stereo not drawn) [VII-029] | 80%
COC(=O)COc1nn(-c2ccc(F)cc2)c(-c2ccc(F)nc2)c1Br [VII-002] | 90%
C=CCNC(=O)COc1nn(-c2ccccc2F)c(-c2ccc(F)nc2)c1Br [Example X-001] | 80%

---

System: AMARE
Test Protocol: Pre-emergence action at 320 g/ha against AMARE
Type: in vivo, Amaranthus retroflexus
Measurement Context: Amaranthus retroflexus, 504 h, visual scoring after about 3 weeks vs untreated controls
Catalogue of pest or weed control at 320 g/ha values
Experimental Readout: pest or weed control at 320 g/ha (%)

Molecule | Measured Target | Result Number
COC(=O)[C@@H](C)Oc1nn(-c2ccccc2F)c(-c2cncnc2)c1Br [VI-011] | AMARE | 100
CCOC(=O)COc1nn(-c2ccccc2F)c(-c2ccc(F)nc2)c1Br [VII-012] | AMARE | 100
COC(=O)[C@@H](C)Oc1nn(-c2ccccc2F)c(-c2ccc(F)nc2)c1Br [VII-004] | AMARE | 90
COC(=O)C(C)Oc1nn(-c2ccccc2)c(-c2ccc(F)nc2)c1Cl (centres unmarked) [VII-023] | AMARE | 100
O=C(O)COc1nn(-c2ccccc2F)c(-c2cncnc2)c1Br [VI-007] | AMARE | 100
